# method_summary: Human HepG2 cell viability assay in 384 well format
# Format: toxicity, cell-based
# Parameters: dose 125 nL, time 70.5 hour; concentration not given beside the values
# condition: HepG2 cells, read-out: Inhibition
Listed compounds paired with reported cytotoxicity at 70.5 h

compound	cytotoxicity at 70.5 h [%]
CCn1cc(NC(=O)CN2CCC(Oc3ccccc3C)CC2)c(C)n1	-2.26
O=C1CSC(c2ccc(O)cc2)c2sccc2N1 (configuration not stated)	3
CCOc1ccc(C(=O)Nc2c(C)nc3ccccn3c2=O)cc1	19.8
COc1ccc(C(NC(=O)NCc2nnc3n2CCC3)C2CC2)cc1 (configuration not stated)	14.3
COCCN1CCCn2cnc(CNC3CCCC3)c2C1	0.0497
Nc1nc(CCCNC(=O)c2ccccc2C2CCNC2)cs1 (configuration not stated)	-20.9
COc1cc(NCc2c(C)noc2C)c(C(=O)N(C)C)cc1OC	-8.14
COCCOC(=O)N1C[C@H]2CC[C@@H]1CN(C1Cc3ccccc3C1)C2	-3.17
CCN(C)c1ncnc2c1CCN(C(=O)c1cccn1C)CC2	21
Cc1nnc(N2CCOC(CN(C)C)C2)c(C#N)c1C (configuration not stated)	-6.93
c1csc(CN2CCC3(CC2)CCN(CC2CC2)CC3)n1	14.9
CC(C)n1cc2cc(NC(=O)CCS(C)(=O)=O)ccc2n1	23.6

Data provenance: ChEMBL document CHEMBL3507680
